B1: OR4K15 (parent)
chain: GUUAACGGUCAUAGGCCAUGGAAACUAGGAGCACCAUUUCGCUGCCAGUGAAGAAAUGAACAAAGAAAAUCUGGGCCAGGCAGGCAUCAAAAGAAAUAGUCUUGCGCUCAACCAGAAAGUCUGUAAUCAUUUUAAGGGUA

Variants of: B1
procedure.text: self-cleavage, relative activity (ratio to wild type); higher = more cleavage; in vitro, sequencing; the parent is a self-cleaving ribozyme
Give T when the value for self-cleavage is at least 0.6. Give F when it is less.

| changes | label.class |
| --- | --- |
| A111G A140G | F |
| A33G A82G | F |
| U19A U49C | T |
| C76A A111U | F |
| G79A | F |
| A62G G80A | F |
| U103A U120C | F |
| A56U A126U | T |
| A78G A90G | F |
| A110G A116G | F |
| U2A U43C | T |
| A62G A98U | T |
| G80A A86U | F |
| U130A U132C | T |
| A27U A59G | T |
| A22G C76U | F |
| U108G U133C | F |
| A62G C81U | F |
| A110G A111G | F |
| A92G C113U | F |
| A52G A95U | T |
| A91G A94G | T |
| C6U G44A | T |
| C61U A62G | T |
| A5G A111G | F |
| U9A A111U | F |
| U38C U72G | F |
| A68G G123A | T |
| A62U A69G | T |
| A13U A96G | T |
| A68G A95G | T |
| U12A | T |
| A47U U132C | T |
| A52G C105A | F |
| G83U U108C | F |
| U39C A135U | T |
| C45U U49G | T |
| A18U A86G | T |
| A64G A90G | T |
| U49A U57G | F |
| U87C A117G | T |
| A18G C40U | T |
| U131C A135G | T |
| A36G C71U | F |
| A67G A86G | T |
| A33U A56G | T |
| U43G A54C | T |
| U38C U124C | T |
| G20A A92G | T |
| A11G A135U | T |
| G28A A68G | T |
| A92G A140G | T |
| A59G U127C | T |
| A82G A96U | F |
| A69G A114U | F |
| U87A A89C | T |
| A36U A66U | T |
| A63G C128U | T |
| C25U A110U | F |
| A22G A94G | T |
| C46A A91G | T |
| U38C A52G | T |
| A66C A92G | T |
| U87A A110C | F |
| A5C A52G | F |
| A116G U122C | F |
| G21A A67G | T |
| A66G A126G | T |
| A47U A118G | T |
| A24G U124C | T |
| G21U A82G | T |
| U127C A134U | T |
| A78C G106A | F |
| A22G A59C | T |
| U19C A140U | T |
| U100C A129C | T |
| A18G U122A | T |

Cited source: the RNAGym collection of RNA variant scans (doi:10.7554/elife.90254)
